Tested on: UACC-257 melanoma
ASSAY COMMENT: NCI-60 one-dose screen, 48 h
CONDITION SUMMARY: 10 µM unless noted
Compounds without any hit were thinned out: in the full panel of roughly 83,000, 20% have a hit. Calls of active or inactive are those of the source. How the source made its calls: active means growth percent below 10; inactive means the rest.
Pick one and only one: active, inactive

Inquiry: Kindly provide the recorded test outcome for the following compound: `Nc1nc(Nc2ccccc2)c2ncn(Cc3cc4c(cc3Br)OCO4)c2n1`
Reply text: inactive

Inquiry: Kindly provide the recorded test outcome for the following compound: `COc1c(C(C)=O)c(OCCCCOc2c(C(C)=O)c(OC)c3ccoc3c2OC)c(OC)c2occc12`
Reply text: inactive

Inquiry: Kindly provide the recorded test outcome for the following compound: `COc1cc2c(O)n(CCCN3CCOCC3)c3c4cnc5cccc(c(=O)c3c2cc1OC)c54`
Reply text: inactive

Inquiry: Kindly provide the recorded test outcome for the following compound: `C1=C[C@H]2O[C@@H]1c1ccc3[nH]ccc3c12`
Reply text: inactive

Inquiry: Kindly provide the recorded test outcome for the following compound: `CC1(C)C(=NO)C(C)(C)C1=NO`
Reply text: inactive

Inquiry: Kindly provide the recorded test outcome for the following compound: `O=C(Nc1cccc2cccnc12)c1cc(C(=O)c2ccc(Cl)cc2)n2ccc(-c3ccncc3)cc12`
Reply text: inactive

Inquiry: Kindly provide the recorded test outcome for the following compound: O=C1Cc2c(sc3c(F)cccc23)C(c2ccccc2[N+](=O)[O-])N1 (stereo not given)
Reply text: inactive

Inquiry: Kindly provide the recorded test outcome for the following compound: `O=[N+]([O-])c1cc([N+](=O)[O-])c(C(F)(F)F)cc1NN=C(c1ccc(O)cc1)c1ccc(O)cc1`
Reply text: active

Inquiry: Kindly provide the recorded test outcome for the following compound: `COc1ccc(/C=C/C=C\C(=O)c2ccc(-n3ccnc3)cc2)cc1`
Reply text: inactive

Inquiry: Kindly provide the recorded test outcome for the following compound: CC1(C(=O)O)CCC(N)(C(=O)O)C1(C)C (stereo not given)
Reply text: inactive

Inquiry: Kindly provide the recorded test outcome for the following compound: `COc1ccc2c(c1)c(-c1noc(C(=O)c3cn(C)c4ncc(Br)cc34)n1)cn2C`
Reply text: inactive

Inquiry: Kindly provide the recorded test outcome for the following compound: `Cc1ccccc1-n1nnc(C(=O)Nc2nc3ccc(F)cc3s2)c1C`
Reply text: inactive

Inquiry: Kindly provide the recorded test outcome for the following compound: `CC[C@]12C=CCN3CC[C@@]4(c5ccc(OC)cc5N(C)[C@H]4[C@@](O)(C(=O)OC)[C@@H]1OC(=O)CCC(=O)O[C@H]1CC[C@H]4[C@@H]5CCC6=CC(=O)CC[C@@H]6[C@H]5CC[C@]14C)[C@@H]32`
Reply text: inactive

Inquiry: Kindly provide the recorded test outcome for the following compound: CCCCCCCCCN(CCCCCCCCC)C(C)C(=O)c1ccc2cc(Br)c3ccccc3c2c1 (stereo not given)
Reply text: inactive

Inquiry: Kindly provide the recorded test outcome for the following compound: `CCOC(=O)CCC[P+](c1ccccc1)(c1ccccc1)c1ccccc1`
Reply text: inactive

Inquiry: Kindly provide the recorded test outcome for the following compound: `O=C(OCc1ccc2c(Cl)cc(Cl)c(O)c2n1)N1CCN(C(=O)c2cc3cc(F)ccc3[nH]2)CC1`
Reply text: inactive

Inquiry: Kindly provide the recorded test outcome for the following compound: `O=C1COCCN1c1ccc(NCc2cn(Cc3ccc(F)cc3)c3ccccc23)cc1`
Reply text: inactive

Inquiry: Kindly provide the recorded test outcome for the following compound: `NNC(=O)c1ccc(C(=O)NN)cc1`
Reply text: inactive

Inquiry: Kindly provide the recorded test outcome for the following compound: `N=C(N)c1ccc(-c2ccc(-c3ccc(-c4cccs4)s3)s2)cc1F`
Reply text: inactive

Inquiry: Kindly provide the recorded test outcome for the following compound: `Cn1cc(-c2nnc(-c3cn(C)c4ncc(Br)cc34)o2)c2ccccc21`
Reply text: inactive
